The entries below are paired with their reported Kd.
# target_or_system: T1, GIT1 SHD domain (mouse, UniProt Q68FF6 260-371)
# T1 sequence (looked up): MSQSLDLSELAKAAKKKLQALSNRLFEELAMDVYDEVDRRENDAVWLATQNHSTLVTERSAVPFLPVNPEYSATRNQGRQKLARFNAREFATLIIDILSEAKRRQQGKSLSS
# protocol_description: ITC

{"binder": "β-Pix 494-555 (domain or fragment, mouse, UniProt Q9ES28-4 599-660, looked up) DLSKSPKTMKKLLPKRKPERKPSDEEFAVRKSTAALEEDAQILKVIEAYCTSAKTRQTLNSS", "Kd": "~150 nM"}

Next item in the queue.
What Kd value was documented for this binder, ALEEDAQILKVIEAYCTSAKT [β-Pix GBD peptide (aa 528-548)] ?
~180 nM
